# Enzyme activity inhibition rate (%) (addition concentration of 50 nM) values compiled below
# assayed target: recombinant HIV-1 protease (Human immunodeficiency virus type 1 group M subtype B, UniProt P04585)
# Construct: measured using a recombinant HIV-1 protease
# assay comment: HIV protease inhibition activity (enzyme activity inhibition rate)
# Assay type: biochemical
# experimental conditions: 50 nM final concentration of test compound; 60 min at 37° C.
measurement label: Enzyme activity inhibition rate (%) (addition concentration of 50 nM)

chem smiles: Cc1ccccc1CNC(=O)[C@H]1N(C(=O)[C@@H](O)[C@H](Cc2ccccc2)NC(=O)[C@@H](NC(=O)c2cc(=O)c3ccccc3o2)C(C)C)CSC1(C)C
readout value: 97.4%
--
chem smiles: CC[C@H](NC(=O)COc1cccc(N(C)C)c1)C(=O)N[C@@H](Cc1ccccc1)[C@H](O)C(=O)N1CSC(C)(C)[C@H]1C(=O)NCc1ccccc1C
readout value: 99.9%
--
chem smiles: Cc1ccccc1CNC(=O)[C@H]1N(C(=O)[C@@H](O)[C@H](Cc2ccccc2)NC(=O)[C@H](CC(N)=O)NC(=O)c2cc(=O)c3ccccc3o2)CSC1(C)C
readout value: 98.4%
--
chem smiles: CC[C@H](NC(=O)COc1ccc2ncccc2c1)C(=O)N[C@@H](Cc1ccccc1)[C@H](O)C(=O)N1CSC(C)(C)[C@H]1C(=O)NCc1ccccc1C
readout value: 98.1%

###

# assay comment: Pharmacokinetics test (digestive tract absorption and metabolic characteristics) in rats
# Assay type: in vivo
# experimental conditions: 10 mg/kg, Iv (intravenous)
measurement label: AUC (µg·min/mL)

compound: CC[C@H](NC(=O)COc1cccc(N(C)C)c1)C(=O)N[C@@H](Cc1ccccc1)[C@H](O)C(=O)N1CSC(C)(C)[C@H]1C(=O)NC(C)(C)C [Example 36]
measurement label: AUC
readout value: 226
--
compound: COc1cccc2cc(C(=O)N[C@H](C(=O)N[C@@H](Cc3ccccc3)[C@H](O)C(=O)N3CSC(C)(C)[C@H]3C(=O)NCc3ccccc3C)C(C)C)oc12 [Example 16]
measurement label: AUC
readout value: 322
--
compound: CC(C)[C@H](NC(=O)COc1cccc(N(C)C)c1)C(=O)N[C@@H](Cc1ccccc1)[C@H](O)C(=O)N1CSC(C)(C)[C@H]1C(=O)NC(C)(C)C [Example 35]
measurement label: AUC
readout value: 119
--
compound: COC(=O)N[C@H](C(=O)N[C@@H](Cc1ccccc1)[C@H](O)C(=O)N1CSC(C)(C)[C@H]1C(=O)NCc1ccccc1C)C(C)C [Example 27]
measurement label: AUC
readout value: 272

###

# assay comment: Pharmacokinetics test (digestive tract absorption and metabolic characteristics) in rats
# Type: in vivo
# experimental conditions: 10 mg/kg, Id versus Iv
Consider the following compounds and their measured F (biological utilization rate of administration in the duodenum) readings.
measurement label: F (biological utilization rate of administration in the duodenum) (%)

chem smiles: CC(C)[C@H](NC(=O)COc1cccc(N(C)C)c1)C(=O)N[C@@H](Cc1ccccc1)[C@H](O)C(=O)N1CSC(C)(C)[C@H]1C(=O)NC(C)(C)C
unit label: %
readout value: 89
//
chem smiles: COc1cccc2cc(C(=O)N[C@H](C(=O)N[C@@H](Cc3ccccc3)[C@H](O)C(=O)N3CSC(C)(C)[C@H]3C(=O)NCc3ccccc3C)C(C)C)oc12
unit label: %
readout value: 27
//
chem smiles: COC(=O)N[C@H](C(=O)N[C@@H](Cc1ccccc1)[C@H](O)C(=O)N1CSC(C)(C)[C@H]1C(=O)NCc1ccccc1C)C(C)C
unit label: %
readout value: 32
//
chem smiles: CC[C@H](NC(=O)COc1cccc(N(C)C)c1)C(=O)N[C@@H](Cc1ccccc1)[C@H](O)C(=O)N1CSC(C)(C)[C@H]1C(=O)NC(C)(C)C
unit label: %
readout value: 82

###

Known inhibition at 0.05 µM of a selection of compounds
# assayed target: recombinant HIV-1 protease (Human immunodeficiency virus type 1 group M subtype B)
# Construct: measured using a recombinant HIV-1 protease
# assay comment: HIV protease inhibition activity (enzyme activity inhibition rate)
# Format: biochemical
# experimental conditions: 50 nM final concentration of test compound; 60 min at 37° C.; read-out: Enzyme activity inhibition rate (%) (addition concentration of 50 nM)

compound: CC[C@H](NC(=O)COc1cccc(N(C)C)c1)C(=O)N[C@@H](Cc1ccccc1)[C@H](O)C(=O)N1CSC(C)(C)[C@H]1C(=O)NC(C)(C)C [Example 36]
assayed target: recombinant HIV-1 protease (Human immunodeficiency virus type 1 group M subtype B)
unit label: %
inhibition at 0.05 µM: 95
//
compound: COC(=O)N[C@@H](CC(N)=O)C(=O)N[C@@H](Cc1ccccc1)[C@H](O)C(=O)N1CSC(C)(C)[C@H]1C(=O)NCc1ccccc1C [Example 40]
assayed target: recombinant HIV-1 protease (Human immunodeficiency virus type 1 group M subtype B)
unit label: %
inhibition at 0.05 µM: 94.3
//
compound: Cc1ccccc1CNC(=O)[C@H]1N(C(=O)[C@@H](O)[C@H](Cc2ccccc2)NC(=O)[C@@H](NC(=O)c2cnc3ccccc3c2)C(C)C)CSC1(C)C [Example 21]
assayed target: recombinant HIV-1 protease (Human immunodeficiency virus type 1 group M subtype B)
unit label: %
inhibition at 0.05 µM: 97.7
//
compound: CC[C@H](NS(C)(=O)=O)C(=O)N[C@@H](Cc1ccccc1)[C@H](O)C(=O)N1CSC(C)(C)[C@H]1C(=O)NCc1ccccc1C [Example 38]
assayed target: recombinant HIV-1 protease (Human immunodeficiency virus type 1 group M subtype B)
unit label: %
inhibition at 0.05 µM: 76
//
compound: CC1(C)SCN(C(=O)[C@@H](O)[C@H](Cc2ccccc2)NC(=O)[C@H](CC(N)=O)NC(=O)OCc2ccccc2)[C@@H]1C(=O)NCc1ccccc1 [Example 1]
assayed target: recombinant HIV-1 protease (Human immunodeficiency virus type 1 group M subtype B)
unit label: %
inhibition at 0.05 µM: 96
//
compound: COc1cccc2cc(C(=O)N[C@H](C(=O)N[C@@H](Cc3ccccc3)[C@H](O)C(=O)N3CSC(C)(C)[C@H]3C(=O)NCc3ccccc3C)C(C)C)oc12 [Example 16]
assayed target: recombinant HIV-1 protease (Human immunodeficiency virus type 1 group M subtype B)
unit label: %
inhibition at 0.05 µM: 97.1
//
compound: CC(C)[C@H](NC(=O)COc1cccc(N(C)C)c1)C(=O)N[C@@H](Cc1ccccc1)[C@H](O)C(=O)N1CSC(C)(C)[C@H]1C(=O)NC(C)(C)C [Example 35]
assayed target: recombinant HIV-1 protease (Human immunodeficiency virus type 1 group M subtype B)
unit label: %
inhibition at 0.05 µM: 96
//
compound: Cc1ccccc1CNC(=O)[C@H]1N(C(=O)[C@@H](O)[C@H](Cc2ccccc2)NC(=O)[C@@H](NC(=O)COc2cccc(N(C)C)c2)C(C)C)CSC1(C)C [Example 22]
assayed target: recombinant HIV-1 protease (Human immunodeficiency virus type 1 group M subtype B)
unit label: %
inhibition at 0.05 µM: 97.6
//
compound: Cc1ccccc1CNC(=O)[C@H]1N(C(=O)[C@@H](O)[C@H](Cc2ccccc2)NC(=O)[C@H](CC(N)=O)NC(=O)OCc2ccccc2)CSC1(C)C [Example 3]
assayed target: recombinant HIV-1 protease (Human immunodeficiency virus type 1 group M subtype B)
unit label: %
inhibition at 0.05 µM: 100
//
compound: COC(=O)N[C@H](C(=O)N[C@@H](Cc1ccccc1)[C@H](O)C(=O)N1CSC(C)(C)[C@H]1C(=O)NCc1ccccc1C)[C@@H](C)O [Example 39]
assayed target: recombinant HIV-1 protease (Human immunodeficiency virus type 1 group M subtype B)
unit label: %
inhibition at 0.05 µM: 84.6
//
compound: Cc1ccccc1CNC(=O)[C@H]1N(C(=O)[C@@H](O)[C@H](Cc2ccccc2)NC(=O)[C@@H](NC(=O)c2cc3ccccc3o2)C(C)C)CSC1(C)C [Example 11]
assayed target: recombinant HIV-1 protease (Human immunodeficiency virus type 1 group M subtype B)
unit label: %
inhibition at 0.05 µM: 97.1
//
compound: Cc1ccccc1CNC(=O)[C@H]1N(C(=O)[C@@H](O)[C@H](Cc2ccccc2)NC(=O)[C@@H](NS(C)(=O)=O)C(C)C)CSC1(C)C [Example 37]
assayed target: recombinant HIV-1 protease (Human immunodeficiency virus type 1 group M subtype B)
unit label: %
inhibition at 0.05 µM: 70.1
//
compound: Cc1ccccc1CNC(=O)[C@H]1N(C(=O)[C@@H](O)[C@H](Cc2ccccc2)NC(=O)[C@@H](NC(=O)COc2cccc3cnccc23)C(C)C)CSC1(C)C [Example 8]
assayed target: recombinant HIV-1 protease (Human immunodeficiency virus type 1 group M subtype B)
unit label: %
inhibition at 0.05 µM: 97.7
//
compound: CC[C@H](NC(C)=O)C(=O)N[C@@H](Cc1ccccc1)[C@H](O)C(=O)N1CSC(C)(C)[C@H]1C(=O)NCc1ccccc1C [Example 34]
assayed target: recombinant HIV-1 protease (Human immunodeficiency virus type 1 group M subtype B)
unit label: %
inhibition at 0.05 µM: 88.9
//
compound: CC(=O)N[C@H](C(=O)N[C@@H](Cc1ccccc1)[C@H](O)C(=O)N1CSC(C)(C)[C@H]1C(=O)NCc1ccccc1C)C(C)C [Example 33]
assayed target: recombinant HIV-1 protease (Human immunodeficiency virus type 1 group M subtype B)
unit label: %
inhibition at 0.05 µM: 89.8
//
compound: CC1(C)SCN(C(=O)[C@@H](O)[C@H](Cc2ccccc2)NC(=O)[C@H](CC(N)=O)NC(=O)OCc2ccccc2)[C@@H]1C(=O)NCc1ccccc1Cl [Example 5]
assayed target: recombinant HIV-1 protease (Human immunodeficiency virus type 1 group M subtype B)
unit label: %
inhibition at 0.05 µM: 98.4
//
compound: Cc1ccccc1CNC(=O)[C@H]1N(C(=O)[C@@H](O)[C@H](Cc2ccccc2)NC(=O)[C@@H](NC(=O)OCc2ccccc2)C(C)C)CSC1(C)C [Example 4]
assayed target: recombinant HIV-1 protease (Human immunodeficiency virus type 1 group M subtype B)
unit label: %
inhibition at 0.05 µM: 95.3
//
compound: Cc1ccccc1CNC(=O)[C@H]1N(C(=O)[C@@H](O)[C@H](Cc2ccccc2)NC(=O)[C@H](C)NC(=O)COc2cccc(N(C)C)c2)CSC1(C)C [Example 26]
assayed target: recombinant HIV-1 protease (Human immunodeficiency virus type 1 group M subtype B)
unit label: %
inhibition at 0.05 µM: 99.9
//
compound: Cc1ccccc1CNC(=O)[C@H]1N(C(=O)[C@@H](O)[C@H](Cc2ccccc2)NC(=O)[C@H](CC(N)=O)NC(=O)c2cnc3ccccc3n2)CSC1(C)C [Example 18]
assayed target: recombinant HIV-1 protease (Human immunodeficiency virus type 1 group M subtype B)
unit label: %
inhibition at 0.05 µM: 98.8
//
compound: Cc1ccccc1CNC(=O)[C@H]1N(C(=O)[C@@H](O)[C@H](Cc2ccccc2)NC(=O)[C@@H](NC(=O)c2cnc3ccccc3n2)C(C)C)CSC1(C)C [Example 19]
assayed target: recombinant HIV-1 protease (Human immunodeficiency virus type 1 group M subtype B)
unit label: %
inhibition at 0.05 µM: 97.3
//
compound: Cc1ccccc1CNC(=O)[C@@H]1[C@@H](C)OCN1C(=O)[C@@H](O)[C@H](Cc1ccccc1)NC(=O)[C@H](CC(N)=O)NC(=O)OCc1ccccc1 [Example 9]
assayed target: recombinant HIV-1 protease (Human immunodeficiency virus type 1 group M subtype B)
unit label: %
inhibition at 0.05 µM: 61.9
//
compound: COCC(=O)N[C@H](C(=O)N[C@@H](Cc1ccccc1)[C@H](O)C(=O)N1CSC(C)(C)[C@H]1C(=O)NCc1ccccc1C)C(C)C [Example 31]
assayed target: recombinant HIV-1 protease (Human immunodeficiency virus type 1 group M subtype B)
unit label: %
inhibition at 0.05 µM: 89.6
//
compound: COC(=O)N[C@H](C(=O)N[C@@H](Cc1ccccc1)[C@H](O)C(=O)N1CSC(C)(C)[C@H]1C(=O)NCc1ccccc1C)C(C)C [Example 27]
assayed target: recombinant HIV-1 protease (Human immunodeficiency virus type 1 group M subtype B)
unit label: %
inhibition at 0.05 µM: 94.9
